# measurementTarget: PLK1 (human)
# protocolDescription: radiometric filter-binding kinase assay
# experimentalConditions: compound 1.0 µM
valueType: residual activity (%)

COc1cc(C(=O)N2CCOCC2)c(F)cc1Nc1ncc(C(F)(F)F)c(NC2CC2)n1: 78
CC(C)(C#N)c1ccc(N2C(=O)OCc3cnc4ccc(-c5cnc6ccccc6c5)cc4c32)cc1: 93
CCCCCc1ccc(/C=C/[C@H](O)[C@@H](CO)NC)cc1: 94
Cc1ccc(=O)n(-c2ccccc2)c1: 96

[P] Cc1cc(NC(=O)c2cccc(NC(=O)/C=C/CN(C)C)c2)ccc1Nc1nccc(-c2cccnc2)n1
[Q] CNC(=O)C1[C@H]2O[C@@](C)([C@@H]1N)n1c3ccccc3c3c4c(c5c6ccccc6n2c5c31)C(=O)NC4 (stereo partly specified)
[R] COc1cc2ncn(-c3cc(OCc4ccccc4S(C)(=O)=O)c(C#N)s3)c2cc1OC
[S] NC(=O)Nc1ccc2c(c1)/C(=C/c1cc(-c3cccnc3)c[nH]1)C(=O)N2
QUERY: # rank_down: sort by residual activity, max first Field: ranking. Enter the labels in the order requested.
RESULT: P, R, S, Q
(P: 94%, R: 65%, S: 42%, Q: 22%)

[P] CCNc1nc(Nc2cc(F)c(C(=O)N3CCOCC3)cc2OC)ncc1C(F)(F)F
[Q] Cc1ccc(-c2ccc3c(ccc4sc5c(c43)NC[C@@H](C)NC5=O)n2)cn1
QUERY: Looking at recorded values for residual activity, does P or Q come in lower? Indicate your choice by writing its label.
RESULT: P
